Molecular target: Mannose-6-phosphate isomerase (Homo sapiens)
Experiment: MPI inhibition at elevated mannose 6-phosphate – biochemical, fluorescence intensity, high mannose 6-phosphate, primary screen (AID 1220)
Conditions: recombinant PMI enzyme, coupled fluorescence intensity; at 20 µM
Out of some 190,000 compounds screened, about 1,300 (0.68%) were called active. Cut-off read from the data, not from the text of the source: active = inhibition above about 50%; inactive = the rest. The entries come from a sample that favours actives as a whole.
I would appreciate it if you answered using one of these outcomes: active, inactive

INSERT INTO measurements (molecule, discrete_label) VALUES
  ('O=C1C2C3C=CC(C4CC34)C2C(=O)N1/N=C/c1ccc(-c2ccc(Cl)cc2[N+](=O)[O-])o1 (stereo unspecified)', 'inactive'),
  ('CCOc1ccc(NC2=C(OC)C(=O)c3ccccc3C2=O)cc1', 'inactive'),
  ('COc1ccc(-c2ccc(/C=N/N3C(=O)C4C5C=CC(C6CC56)C4C3=O)o2)c([N+](=O)[O-])c1 (stereo unspecified)', 'inactive'),
  ('CCc1ccccc1NC(=O)c1onc(C)c1Cl', 'inactive');

Input line: For O=C(CN1CCC(NC(=O)Cc2ccccc2)CC1)Nc1ccccc1Br , what call appears in the results of this test?
Output line: inactive

Input line: Now try COc1ccc(OC)c(NC(=O)NC2(C(F)(F)F)Oc3ccccc3O2)c1 .
Output line: active

Input line: Now try Cc1ccc(-c2ccc(/C=N/N3C(=O)C4C5C=CC(C6CC56)C4C3=O)o2)c([N+](=O)[O-])c1 (stereo unspecified) .
Output line: active

Input line: Now try O=c1nc2s/c(=C\c3ccc(-c4ccccc4[N+](=O)[O-])o3)c(=O)n2nc1-c1ccccc1 .
Output line: active

From: PubChem BioAssay AID1220
